Biological target: T1, human UCN1 peptide, biotinylated (human, UniProt P55089 83-122, biotin at N- or C-terminus)
T1 construct: also called hUCN1 (NT Biotin); hUCN1 (CT Biotin)
T1 peptide (looked up): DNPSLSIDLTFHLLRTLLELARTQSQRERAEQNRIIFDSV
Test: ELISA, hUCN1 (NT biotin) and (CT biotin), mAb at 100 and 10 nM

binder	binding result
PR302341-48 (antibody, human IgG1, kappa, V domains shown) VH: QVQLVQSGAEVKKPGASVKVSCKASGYTFTDYFMKWVRQAPGQGLEWMGVINPNQGDIFYNQKFKGRVTMTVDKSTSTAYMELSSLRSEDTAVYYCARGTDRALFAYWGQGTLVTVSS VL: DVVMTQTPLSSPVTLGQPASISCRSGQSIVHSDANTYLEWYQQRPGQPPRLLIYKVSNRFSGVPDRFSGSGAGTDFTLKISRVEAEDLGVYYCFQGSHIPWTFGGGTKVEIKR	binds
